target: human TRPM8 (Homo sapiens, UniProt Q7Z2W7); construct: expressed in transfected cells; host or cells: HEK-293; assay: TRPM8 Protocol-FLIPR Assay (intracellular Ca2+ in transfected HEK-293 cells); assay type: cell-based; settings: HEK-293 cells stably transfected with human TRPM8; fluorescence compared to benchmark agonist WS-5; dose-response curve fit; read-out: TRPM8 Activity EC50
Sequence (Q7Z2W7 whole entry): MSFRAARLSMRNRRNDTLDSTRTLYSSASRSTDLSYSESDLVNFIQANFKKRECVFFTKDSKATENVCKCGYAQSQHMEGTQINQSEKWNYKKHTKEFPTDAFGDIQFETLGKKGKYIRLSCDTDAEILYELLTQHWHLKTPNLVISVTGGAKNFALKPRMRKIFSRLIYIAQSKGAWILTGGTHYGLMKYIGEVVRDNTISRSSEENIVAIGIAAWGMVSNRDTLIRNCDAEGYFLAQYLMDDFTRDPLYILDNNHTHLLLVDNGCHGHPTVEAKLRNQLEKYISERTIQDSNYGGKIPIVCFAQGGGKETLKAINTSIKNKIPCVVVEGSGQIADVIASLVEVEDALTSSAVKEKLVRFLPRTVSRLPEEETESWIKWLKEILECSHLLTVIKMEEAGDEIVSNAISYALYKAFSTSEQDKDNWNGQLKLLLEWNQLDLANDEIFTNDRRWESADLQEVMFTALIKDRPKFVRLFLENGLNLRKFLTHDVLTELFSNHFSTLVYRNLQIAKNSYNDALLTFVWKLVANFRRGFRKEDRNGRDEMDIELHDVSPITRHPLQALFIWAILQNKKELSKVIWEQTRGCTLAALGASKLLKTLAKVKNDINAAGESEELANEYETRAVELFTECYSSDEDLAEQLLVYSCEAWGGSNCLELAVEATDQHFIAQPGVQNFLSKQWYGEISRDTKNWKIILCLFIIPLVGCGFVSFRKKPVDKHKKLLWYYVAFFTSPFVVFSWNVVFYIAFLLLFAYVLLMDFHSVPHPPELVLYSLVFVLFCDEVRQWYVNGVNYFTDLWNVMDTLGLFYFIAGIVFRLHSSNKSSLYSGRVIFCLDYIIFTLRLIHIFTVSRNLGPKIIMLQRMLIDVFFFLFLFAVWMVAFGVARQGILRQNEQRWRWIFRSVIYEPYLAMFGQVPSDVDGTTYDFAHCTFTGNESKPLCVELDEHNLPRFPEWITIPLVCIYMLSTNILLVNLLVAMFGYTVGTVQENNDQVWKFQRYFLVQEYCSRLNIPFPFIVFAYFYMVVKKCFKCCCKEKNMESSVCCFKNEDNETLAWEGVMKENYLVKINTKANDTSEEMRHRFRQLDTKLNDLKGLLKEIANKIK
pEC50: −log10 of the molar value.
Quick reference for pEC50 among some molecules
recordedMetric: pEC50

| structureAsSmiles | number |
| --- | --- |
| Cc1ccc(C(C)C)c(OC(=O)C[C@@H](NC(=O)[C@@H](C)N)c2ccccc2)c1 | 7.22 |
| C[C@@H](N)C(=O)N[C@H](CNC(=O)c1ccccc1)c1ccccc1 | 6.24 |
| C[C@@H](N)C(=O)N[C@H](CNC(=O)c1cccnc1)c1ccccc1 | 4.55 |
| NCC(=O)N[C@H](CNC(=O)c1ccccc1)c1ccccc1 | 6.18 |

----------
biological target: human TRPM8 (Homo sapiens, UniProt Q7Z2W7); construct: expressed in transfected cells; host or cells: HEK-293; assay: TRPM8 Protocol-FLIPR Assay (intracellular Ca2+ in transfected HEK-293 cells); format: cell-based; details: HEK-293 cells stably transfected with human TRPM8; fluorescence compared to benchmark agonist WS-5; dose-response curve fit; read-out: TRPM8 Activity EC50
pEC50: −log10 of the molar value. Structures can show the parent of a compound that is named as a salt.
recordedMetric: pEC50

| molecule | boundSign | number |
| --- | --- | --- |
| Cc1ccc(C(C)C)c(OC(=O)C[C@@H](N)c2ccccc2)c1 [Comp 2, reference compound] | = | 4.92 |
| CC(C)=CCC/C(C)=C/C(=O)NC[C@@H](NC(=O)CN)c1ccccc1 [Compound 4a] | = | 5.92 |
| N[C@H](CNC(=O)c1ccccc1)c1ccccc1 [Comp 1, reference compound] | < | 5.00 |
| Cc1ccc(C(C)C)c(OC(=O)C[C@@H](NC(=O)CN)c2ccccc2)c1 [Compound 7a] | = | 6.64 |
| Cc1ccc(C(C)C)c(C(=O)NC[C@@H](N)c2ccccc2)c1 [Compound 6b] | = | 6.81 |
| Cc1ccc(C(C)C)c(C(=O)NC[C@@H](NC(=O)[C@H](C)N)c2ccccc2)c1.Cl [Compound 6d] | = | 8.18 |
| CC(C)C(C)(C(=O)OC[C@@H](NC(=O)[C@H](C)N)c1ccccc1)C(C)C [Compound 8a, hydrochloride] | = | 6.38 |
| CC(C)C(C)(C(=O)OC[C@@H](NC(=O)[C@@H](C)N)c1ccccc1)C(C)C [Compound 8b, hydrochloride] | = | 7.24 |
